- Organism: Rattus norvegicus
- assay info: Open TG-GATES - Regimen: Daily Repeat
- Assay type: toxicity, organism-based, Sprague-Dawley
- Set-up: regimen Daily Repeat, gender Male, age 6 weeks
- condition summary: in vivo, po, 0 mg/kg, 72 h, tissue Plasma, route gavage, dose level Control, time 3 day
property: TBIL (mg/dL)
Write it as a number; the unit mg/dL goes unstated.

// worked examples, TBIL included
In [3]: df
Out[3]:
                                   compound  output_unit  obs_value
0  COC1=CC(=O)C[C@@H](C)[C@]12Oc1c(Cl)c(OC)cc(OC)c1C2=O        mg/dL        0.2
1  CC1=C(/C=C/C(C)=C/C=C/C(C)=C/CO)C(C)(C)CCC1        mg/dL      0.012
2  CC(C)OC(=O)C(C)(C)Oc1ccc(C(=O)c2ccc(Cl)cc2)cc1 [FENOFIBRATE]        mg/dL      0.042
3  COc1ccc2[nH]c([S+]([O-])Cc3ncc(C)c(OC)c3C)nc2c1 (stereo not given)        mg/dL        0.1

Please examine the following record next.
The value of TBIL measured for the compound CCCNC(=O)NS(=O)(=O)c1ccc(Cl)cc1 [CHLORPROPAMIDE] turned out to be 0.034

----------
- Organism: Rattus norvegicus
- assay info: Open TG-GATES - Regimen: Single
- Format: toxicity, organism-based, Sprague-Dawley
- Set-up: regimen Single, gender Male, age 6 weeks
- condition summary: in vivo, po, 300 mg/kg, 9 h, tissue Blood, route gavage, dose level Middle
property: APTT (s)
Write it as a number; the unit s goes unstated.

// worked examples, APTT included
compound	obs value
COC1=CC(=O)C[C@@H](C)[C@]12Oc1c(Cl)c(OC)cc(OC)c1C2=O	17.3
CCOC(=O)CCC(=O)O[C@H]1[C@H](O[C@@H]2[C@@H](C)[C@H](O[C@H]3C[C@@](C)(OC)[C@@H](O)[C@H](C)O3)[C@@H](C)C(=O)O[C@H](CC)[C@@](C)(O)[C@H](O)[C@@H](C)C(=O)[C@H](C)C[C@@]2(C)O)O[C@H](C)C[C@@H]1N(C)C [ERYTHROMYCIN ETHYLSUCCINATE]	22.3
COc1ccc2[nH]c([S+]([O-])Cc3ncc(C)c(OC)c3C)nc2c1 (centres undefined)	22.1

The value of APTT measured for the compound NC(N)=Nc1nc(CSCCC(N)=NS(N)(=O)=O)cs1 turned out to be 18.9

----------
Examples of compounds with documented AST follow.
- Species on record: Rattus norvegicus
- assay info: Open TG-GATES - Regimen: Single
- Type: toxicity, organism-based, Sprague-Dawley
- Set-up: regimen Single, gender Male, age 6 weeks
- condition summary: in vivo, po, 1000 mg/kg, 3 h, tissue Plasma, route gavage, dose level High
Write it as a number; the unit IU/L goes unstated.

The value of AST measured for the compound NC(N)=Nc1nc(CSCCC(N)=NS(N)(=O)=O)cs1 turned out to be 66.6

The value of AST measured for the compound COC1=CC(=O)C[C@@H](C)[C@]12Oc1c(Cl)c(OC)cc(OC)c1C2=O turned out to be 66.6

The value of AST measured for the compound CC(C)OC(=O)C(C)(C)Oc1ccc(C(=O)c2ccc(Cl)cc2)cc1 [FENOFIBRATE] turned out to be 76.6

The value of AST measured for the compound COc1ccc2[nH]c([S+]([O-])Cc3ncc(C)c(OC)c3C)nc2c1 (stereo not given) turned out to be 66

The value of AST measured for the compound CCOC(=O)CCC(=O)O[C@H]1[C@H](O[C@@H]2[C@@H](C)[C@H](O[C@H]3C[C@@](C)(OC)[C@@H](O)[C@H](C)O3)[C@@H](C)C(=O)O[C@H](CC)[C@@](C)(O)[C@H](O)[C@@H](C)C(=O)[C@H](C)C[C@@]2(C)O)O[C@H](C)C[C@@H]1N(C)C [ERYTHROMYCIN ETHYLSUCCINATE] turned out to be 76.6

----------
Examples of molecules with documented Ret follow.
- Species: Rattus norvegicus
- assay info: Open TG-GATES - Regimen: Single
- Type: toxicity, organism-based, Sprague-Dawley
- Design: regimen Single, gender Male, age 6 weeks
- condition summary: in vivo, po, 0 mg/kg, 6 h, tissue Blood, route gavage, dose level Control
Write it as a number; the unit % goes unstated.

// worked examples, Ret included
>>> print(df.to_string())
                                   molecule  output_unit  obs_value
0      NC(N)=Nc1nc(CSCCC(N)=NS(N)(=O)=O)cs1            %        6.9
1  COc1ccc2[nH]c([S+]([O-])Cc3ncc(C)c(OC)c3C)nc2c1 (stereo not given)            %        7.1
2                           NNC(=O)c1ccncc1            %          8
3  COC1=CC(=O)C[C@@H](C)[C@]12Oc1c(Cl)c(OC)cc(OC)c1C2=O            %        7.1

The value of Ret measured for the molecule C[C@@H]1C[C@H]2[C@@H]3CCC4=CC(=O)C=C[C@]4(C)[C@@]3(F)[C@@H](O)C[C@]2(C)[C@@]1(O)C(=O)CO turned out to be 7.5

----------
- Species on record: Rattus norvegicus
- assay info: Open TG-GATES - Regimen: Daily Repeat
- Format: toxicity, organism-based, Sprague-Dawley
- Set-up: regimen Daily Repeat, gender Male, age 6 weeks
- condition summary: in vivo, po, 300 mg/kg, […], tissue Blood, route gavage, dose level Middle, time 7 day
property: APTT
The number alone won't do; follow it with the unit.

// worked examples, APTT included
compound	APTT
NC(N)=Nc1nc(CSCCC(N)=NS(N)(=O)=O)cs1	20.3 s
CCOC(=O)CCC(=O)O[C@H]1[C@H](O[C@@H]2[C@@H](C)[C@H](O[C@H]3C[C@@](C)(OC)[C@@H](O)[C@H](C)O3)[C@@H](C)C(=O)O[C@H](CC)[C@@](C)(O)[C@H](O)[C@@H](C)C(=O)[C@H](C)C[C@@]2(C)O)O[C@H](C)C[C@@H]1N(C)C [ERYTHROMYCIN ETHYLSUCCINATE]	22.2 s
COC1=CC(=O)C[C@@H](C)[C@]12Oc1c(Cl)c(OC)cc(OC)c1C2=O	19 s
COc1ccc2[nH]c([S+]([O-])Cc3ncc(C)c(OC)c3C)nc2c1 (stereo not given)	21.7 s

Please examine the following record next.
The value of APTT measured for the compound CCOc1ccc(NC(=O)CC(C)O)cc1 (stereo not given) turned out to be 16.1 s

----------
- Species: Rattus norvegicus
- assay info: Open TG-GATES - Regimen: Single
- Format: toxicity, organism-based, Sprague-Dawley
- Parameters: regimen Single, gender Male, age 6 weeks
- condition summary: in vivo, po, 30 mg/kg, 3 h, tissue Blood, route gavage, dose level Middle
Examples of molecules with documented Lym follow.
Write it as a number; the unit % goes unstated.

In [3]: df
Out[3]:
                            molecule_smiles  property  output_unit  obs_value
0         CN(C)CCCN1c2ccccc2CCc2ccc(Cl)cc21       Lym            %       71.2
1             CN(C)CCCN1c2ccccc2CCc2ccccc21       Lym            %       78.8
2  CC1=C(/C=C/C(C)=C/C=C/C(C)=C/CO)C(C)(C)CCC1       Lym            %       77.6

Please examine the following record next.
The value of Lym measured for the molecule CN(C)CCN(Cc1cccs1)c1ccccn1 turned out to be 80.2

----------
- Species on record: Rattus norvegicus
- assay info: Open TG-GATES - Regimen: Single
- Format: toxicity, organism-based, Sprague-Dawley
- Set-up: regimen Single, gender Male, age 6 weeks
- condition summary: in vivo, po, 100 mg/kg, 9 h, tissue Blood, route gavage, dose level Low
property: Ret
The number alone won't do; follow it with the unit.

// worked examples, Ret included
compound	Ret
COc1ccc2[nH]c([S+]([O-])Cc3ncc(C)c(OC)c3C)nc2c1 (centres undefined) [OMEPRAZOLE]	6.8%
NC(N)=Nc1nc(CSCCC(N)=NS(N)(=O)=O)cs1 [FAMOTIDINE]	7%
COC1=CC(=O)C[C@@H](C)[C@]12Oc1c(Cl)c(OC)cc(OC)c1C2=O [GRISEOFULVIN]	7.5%

Please examine the following record next.
The value of Ret measured for the compound CCOC(=O)CCC(=O)O[C@H]1[C@H](O[C@@H]2[C@@H](C)[C@H](O[C@H]3C[C@@](C)(OC)[C@@H](O)[C@H](C)O3)[C@@H](C)C(=O)O[C@H](CC)[C@@](C)(O)[C@H](O)[C@@H](C)C(=O)[C@H](C)C[C@@]2(C)O)O[C@H](C)C[C@@H]1N(C)C [ERYTHROMYCIN ETHYLSUCCINATE] turned out to be 8%
